Target: Cholinesterase (Homo sapiens)
Sequence (P06276 whole entry): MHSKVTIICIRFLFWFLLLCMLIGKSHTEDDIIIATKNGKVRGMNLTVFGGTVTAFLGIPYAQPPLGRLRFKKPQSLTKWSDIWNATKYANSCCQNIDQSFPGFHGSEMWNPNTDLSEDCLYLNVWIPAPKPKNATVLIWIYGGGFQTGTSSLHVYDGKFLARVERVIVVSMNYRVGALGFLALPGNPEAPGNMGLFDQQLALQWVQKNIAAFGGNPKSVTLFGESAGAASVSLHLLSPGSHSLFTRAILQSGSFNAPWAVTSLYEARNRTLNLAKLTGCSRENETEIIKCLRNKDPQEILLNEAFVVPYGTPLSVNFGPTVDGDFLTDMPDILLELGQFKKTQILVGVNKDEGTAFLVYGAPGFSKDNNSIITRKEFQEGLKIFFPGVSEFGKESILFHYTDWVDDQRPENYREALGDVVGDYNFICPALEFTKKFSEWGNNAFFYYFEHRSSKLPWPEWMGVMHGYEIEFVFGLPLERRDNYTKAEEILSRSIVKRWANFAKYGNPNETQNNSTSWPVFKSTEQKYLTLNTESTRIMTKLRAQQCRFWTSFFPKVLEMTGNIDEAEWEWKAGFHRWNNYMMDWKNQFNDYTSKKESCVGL
Just a reminder that ties go to Condition not met: only IC50 strictly below 1000 nM counts as Condition met.

> print(dat)
                         structure.notation   class.assignment
1  O=C(NCCc1c[nH]c2ccccc12)C1CCN(Cc2ccccc2)CC1  Condition not met
2  O=C(CCc1c[nH]c2ccccc12)NC1CCN(Cc2ccccc2)CC1      Condition met
3  Cc1cccc(CN2CCC(CC(=O)NCCc3c[nH]c4ccccc34)CC2)c1      Condition met
4  Cc1ccccc1CN1CCC(C(=O)NCCc2c[nH]c3ccccc23)CC1      Condition met
5  COc1ccc2[nH]cc(CCNC(=O)CC3CCN(Cc4cccc(C)c4)CC3)c2c1  Condition not met
6  Cc1ccc(CN2CCC(CC(=O)NCCc3c[nH]c4ccccc34)CC2)cc1      Condition met
7  COc1ccc2[nH]cc(CCNC(=O)C3CCN(Cc4ccccc4)CC3)c2c1  Condition not met
8  Cc1ccccc1CN1CCC(CC(=O)NCCc2c[nH]c3ccccc23)CC1  Condition not met

We now examine a further molecule.
Task: Does COc1ccc2[nH]cc(CCNC(=O)C3CCN(Cc4ccccc4C)CC3)c2c1 have IC50 strictly under 1000 nM?
Output: Condition not met
